System: RT-112
ASSAY_NOTES: Cellular Proliferation Assay (Cell Counting Kit-8), RT-112
Type: cell-based
PARTICULARS: Homo sapiens, RT-112 cells, 72 hours
Please go through the items and note down their pIC50.
In textbook form, pIC50 equals minus log to base ten of the concentration in mol/L.

**Q:** So what's the measured pIC50 for this one? CCN1CCN(c2ccc(Nc3ncc(CCc4cc(C(=O)NOC)cc(OC)c4F)cn3)cc2)CC1 [Compound 55]
**A:** 7.80

**Q:** Moving on to the next molecule: CCN(CC)CCn1cc(Nc2ncc(OCc3cc(C(=O)NC)cc(OC)c3Cl)cn2)cn1 [Compound 190]
**A:** 7.77

**Q:** Moving on to the next molecule: CNC(=O)c1cc(CCc2cnc(Nc3ccc(-n4cccn4)cc3)nc2)c(F)c(OC)c1 [Compound 35]
**A:** 6.34

**Q:** Moving on to the next molecule: CNC(=O)c1cc(CCc2cnc(Nc3cnn(CC4(C)COC4)c3)nc2)c(F)c(OC)c1 [Compound 131]
**A:** 6.88

**Q:** Moving on to the next molecule: CNC(=O)c1cc(CCc2cnc(Nc3cccnc3OC)nc2)c(F)c(OC)c1 [Compound 63]
**A:** 6.05

**Q:** Moving on to the next molecule: CNC(=O)c1cc(CCc2cnc(Nc3cnn([C@@H]4CCN(C)C4)c3)nc2)c(F)c(OC)c1 [Compound 169]
**A:** 6.27

**Q:** Moving on to the next molecule: CNC(=O)c1cc(CCc2cnc(Nc3ccc(CN4CCOCC4)nc3)nc2)c(F)c(OC)c1 [Compound 98]
**A:** 6.65

**Q:** Moving on to the next molecule: CCn1cc(Nc2ncc(OCc3cc(C(=O)NC)cc(OC)c3F)cn2)cn1 [Compound 181]
**A:** 7.46

* * *

ASSAY_TARGET: Recombinant human FGFR1 (Homo sapiens)
Sequence (P11362 22-822): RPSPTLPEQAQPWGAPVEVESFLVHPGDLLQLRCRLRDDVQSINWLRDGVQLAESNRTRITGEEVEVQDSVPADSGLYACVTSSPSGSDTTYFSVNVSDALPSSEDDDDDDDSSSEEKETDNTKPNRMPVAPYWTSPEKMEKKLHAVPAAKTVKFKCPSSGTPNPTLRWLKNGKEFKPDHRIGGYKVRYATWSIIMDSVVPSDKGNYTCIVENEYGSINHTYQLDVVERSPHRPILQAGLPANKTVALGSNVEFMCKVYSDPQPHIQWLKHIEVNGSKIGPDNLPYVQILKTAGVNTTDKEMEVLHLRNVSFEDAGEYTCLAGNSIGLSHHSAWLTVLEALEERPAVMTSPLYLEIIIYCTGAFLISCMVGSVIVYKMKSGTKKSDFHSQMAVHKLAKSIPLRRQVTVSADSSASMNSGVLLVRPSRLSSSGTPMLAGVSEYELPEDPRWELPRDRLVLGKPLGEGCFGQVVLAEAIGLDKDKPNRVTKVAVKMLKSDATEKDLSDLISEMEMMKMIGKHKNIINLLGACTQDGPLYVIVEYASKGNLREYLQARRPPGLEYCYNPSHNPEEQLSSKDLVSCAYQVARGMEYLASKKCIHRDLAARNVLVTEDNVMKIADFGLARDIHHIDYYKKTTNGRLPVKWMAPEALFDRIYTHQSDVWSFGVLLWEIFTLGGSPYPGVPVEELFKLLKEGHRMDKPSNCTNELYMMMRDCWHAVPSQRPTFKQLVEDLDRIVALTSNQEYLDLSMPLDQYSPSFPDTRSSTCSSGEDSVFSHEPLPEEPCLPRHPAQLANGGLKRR
ASSAY_NOTES: Transcreener Kinase Assay of FGFR1
Type: biochemical
PARTICULARS: read-out: FGFR1 (FP) IC50
Protocol: Transcreener Kinase Assay of FGFR1 Prepare Solution • Compounds were solved in DMSO and were diluted with assay buffer to 5 folds of final concentration keeping the DMSO concentration at 5%. […] • [ADP] in Compound well represents the ADP concentration in compound well. • [ADP] in Positive control well represents the ADP concentration in 5% DMSO well • Conversion of mP value to ADP concentration is calculated based on the formula which determined by standard curve. […]
READOUT_NAME: IC50 (nM)
# value in nM; strip the unit string

**Q:** So what's the measured IC50 for this one? CNC(=O)c1cc(CCc2cnc(Nc3ccc(CN4CCOCC4)cn3)nc2)c(F)c(OC)c1
**A:** 164

**Q:** Moving on to the next compound: CCn1cc(Nc2ncc(CCc3cc(OC)cc(C(=O)NC)c3F)cn2)cn1
**A:** 256

**Q:** Moving on to the next compound: CONC(=O)c1cc(CCc2cnc(Nc3ccc(N4CCN(CCO)CC4)cc3)nc2)cc(OC)c1
**A:** 5

**Q:** Moving on to the next compound: CNC(=O)c1cc(CCc2cnc(Nc3cccc(N4C[C@@H](C)N[C@@H](C)C4)c3)nc2)cc(OC)c1
**A:** 98
